tested on: KRAS-mutant PDC complex spheroid viability; experiment: Anticancer human tumor 186277-243-T-J2-PDC patient-derived colon adenocarcinoma cell line growth inhibition [KRAS2]; details: second compound 0.1 µM; first compound 0.00316 µM; stronger effect = lower value
measuredParameter: viability, T/C (%)
Dear colleague, please return just the value in %, with no unit written.

| compound | subjectOfTest | measuredParameter | experimentalResult |
| --- | --- | --- | --- |
| CN(C)C/C=C/C(=O)Nc1cc2c(Nc3ccc(F)c(Cl)c3)ncnc2cc1O[C@H]1CCOC1 + CC1OCC2(CCN(c3cnc(Sc4ccnc(N)c4Cl)c(N)n3)CC2)C1N | KRAS-mutant PDC complex spheroid viability | viability, T/C | 104 |
| CCN1CCN(Cc2ccc(Nc3ncc(F)c(-c4cc(F)c5nc(C)n(C(C)C)c5c4)n3)nc2)CC1 + C=CC(=O)N1CCN(c2nc(=O)n(-c3c(C)ccnc3C(C)C)c3nc(-c4c(O)cccc4F)c(F)cc23)C(C)C1 | KRAS-mutant PDC complex spheroid viability | viability, T/C | 107 |

[in] Fill in the blank: the reported viability, T/C of CC(C)n1nc(-c2ccc3oc(N)nc3c2)c2c(N)ncnc21 + CNCc1ccccc1-c1csc(C(C)Nc2nc(C)nc3cc(OC)c(OC)cc23)c1 is ____.
[out] 57

* * *

The following molecules are shown together with reported viability, T/C values.
test system: KRAS-mutant PDC complex spheroid viability; test: Anticancer human tumor 186277-243-T-J2-PDC cell line growth inhibition [KRAS2]; conditions: second compound 0.316 µM; first compound 0.0316 µM; stronger effect = lower value;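 on viability, T/C: viability read after seven days of compound exposure; 100% = DMSO vehicle-treated spheroids so lower means less viable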
Dear colleague, please return just the value in %, with no unit written.

[in] Report viability, T/C for CC1(C)CCC(CN2CCN(c3ccc(C(=O)NS(=O)(=O)c4ccc(NCC5CCOCC5)c([N+](=O)[O-])c4)c(Oc4cnc5[nH]ccc5c4)c3)CC2)=C(c2ccc(Cl)cc2)C1 + C=CC(=O)N1CCN(c2nc(=O)n(-c3c(C)ccnc3C(C)C)c3nc(-c4c(O)cccc4F)c(F)cc23)C(C)C1 tested on KRAS-mutant PDC complex spheroid viability.
[out] 97.7

[in] Report viability, T/C for CC1COCCN1c1cc(-c2ccnn2C)c2ccnc(-c3ccn[nH]3)c2n1 (stereo unspecified) + CNCc1ccccc1-c1csc(C(C)Nc2nc(C)nc3cc(OC)c(OC)cc23)c1 tested on KRAS-mutant PDC complex spheroid viability.
[out] 24.2

[in] Report viability, T/C for CC1(C)CCC(CN2CCN(c3ccc(C(=O)NS(=O)(=O)c4ccc(NCC5CCOCC5)c([N+](=O)[O-])c4)c(Oc4cnc5[nH]ccc5c4)c3)CC2)=C(c2ccc(Cl)cc2)C1 + CC1OCC2(CCN(c3cnc(Sc4ccnc(N)c4Cl)c(N)n3)CC2)C1N tested on KRAS-mutant PDC complex spheroid viability.
[out] 128

* * *

system: KRAS-mutant PDC complex spheroid viability; test: Anticancer human tumor 186277-243-T-J2-PDC cell line growth inhibition [KRAS2]; conditions: curve of first compound; second compound 0.1 µM
pIC50: −log10 of the molar value.
Assign class by pIC50: not lower than 6 means 1; lower than 6 means 0.

Record excerpt, results attached:
| compound | discreteLabel |
| --- | --- |
| CC(=O)Nc1cccc(-n2c(=O)n(C3CC3)c(=O)c3c(Nc4ccc(I)cc4F)n(C)c(=O)c(C)c32)c1 + CNCc1ccccc1-c1csc(C(C)Nc2nc(C)nc3cc(OC)c(OC)cc23)c1 | 1 |
| O=C(c1cc(Cc2n[nH]c(=O)c3ccccc23)ccc1F)N1CCN(C(=O)C2CC2)CC1 + C=CC(=O)N1CCN(c2nc(=O)n(-c3c(C)ccnc3C(C)C)c3nc(-c4c(O)cccc4F)c(F)cc23)C(C)C1 | 0 |
| CCNC(=O)CC1N=C(c2ccc(Cl)cc2)c2cc(OC)ccc2-n2c(C)nnc21 (stereo unspecified) + C=CC(=O)N1CCN(c2nc(=O)n(-c3c(C)ccnc3C(C)C)c3nc(-c4c(O)cccc4F)c(F)cc23)C(C)C1 | 0 |

[in] Does the compound CC(C)NCC(C(=O)N1CCN(c2ncnc3c2C(C)CC3O)CC1)c1ccc(Cl)cc1 (stereo unspecified) + CNCc1ccccc1-c1csc(C(C)Nc2nc(C)nc3cc(OC)c(OC)cc23)c1 have recorded pIC50 that is 6 or more?
[out] 1

[in] Does the compound CC1OCC2(CCN(c3cnc(Sc4ccnc(N)c4Cl)c(N)n3)CC2)C1N (stereo unspecified) + C=CC(=O)N1CCN(c2nc(=O)n(-c3c(C)ccnc3C(C)C)c3nc(-c4c(O)cccc4F)c(F)cc23)C(C)C1 have recorded pIC50 that is 6 or more?
[out] 0

[in] Does the compound O=C(c1cc(Cc2n[nH]c(=O)c3ccccc23)ccc1F)N1CCN(C(=O)C2CC2)CC1 + COc1cc2nc(C)nc(NC(C)c3cc(N)cc(C(F)(F)F)c3)c2cc1OC1CCOC1 have recorded pIC50 that is 6 or more?
[out] 0

[in] Does the compound CC(C)n1nc(-c2ccc3oc(N)nc3c2)c2c(N)ncnc21 + CNCc1ccccc1-c1csc(C(C)Nc2nc(C)nc3cc(OC)c(OC)cc23)c1 have recorded pIC50 that is 6 or more?
[out] 1

[in] Does the compound CC(C)NCC(C(=O)N1CCN(c2ncnc3c2C(C)CC3O)CC1)c1ccc(Cl)cc1 (stereo unspecified) + CC1OCC2(CCN(c3cnc(Sc4ccnc(N)c4Cl)c(N)n3)CC2)C1N have recorded pIC50 that is 6 or more?
[out] 1

[in] Does the compound CC(=O)OC12COC1CC(O)C1(C)C(=O)C(O)C3=C(C)C(OC(=O)C(O)C(NC(=O)OC(C)(C)C)c4ccccc4)CC(O)(C(OC(=O)c4ccccc4)C21)C3(C)C (stereo unspecified) + CC1OCC2(CCN(c3cnc(Sc4ccnc(N)c4Cl)c(N)n3)CC2)C1N have recorded pIC50 that is 6 or more?
[out] 1

[in] Does the compound COC(=O)c1ccc2c(C(=Nc3ccc(N(C)C(=O)CN4CCN(C)CC4)cc3)c3ccccc3)c(O)[nH]c2c1 + CC1OCC2(CCN(c3cnc(Sc4ccnc(N)c4Cl)c(N)n3)CC2)C1N have recorded pIC50 that is 6 or more?
[out] 0

* * *

Test system: KRAS-mutant PDC complex spheroid viability
Assay: Anticancer human tumor 186277-243-T-J2-PDC cell line growth inhibition [KRAS2];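 on viability, T/C: viability read after seven days of compound exposure; 100% = DMSO vehicle-treated spheroids so lower means less viable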
Settings: second compound 1 µM; first compound 1 µM; stronger effect = lower value
Text: Multicellular complex tumor spheroid response to RAS pathway inhibitors in combination with a targeted agents in patient-derived cell lines with oncogenic KRAS variants from multiple cancer types A high-throughput screen of multi-cell type tumor spheroids was designed to identify active combinations of targeted small molecules and KRAS pathway inhibitors. […] Compounds. […] If the clinical Cmax for an agent had not been determined, the highest concentration tested was 10 microM. […]
Please assign N whenever viability, T/C is at or above 7%, and Y whenever it is below.

| compound | discreteLabel |
| --- | --- |
| CC1(C)CCC(CN2CCN(c3ccc(C(=O)NS(=O)(=O)c4ccc(NCC5CCOCC5)c([N+](=O)[O-])c4)c(Oc4cnc5[nH]ccc5c4)c3)CC2)=C(c2ccc(Cl)cc2)C1 + C=CC(=O)N1CCN(c2nc(=O)n(-c3c(C)ccnc3C(C)C)c3nc(-c4c(O)cccc4F)c(F)cc23)C(C)C1 | N |
| CC1COCCN1c1cc(-c2ccnn2C)c2ccnc(-c3ccn[nH]3)c2n1 (configuration not stated) + C=CC(=O)N1CCN(c2nc(OCC3CCCN3C)nc3c2CCN(c2cccc4cccc(C)c24)C3)CC1CC#N | Y |
| CC(=O)OC12COC1CC(O)C1(C)C(=O)C(O)C3=C(C)C(OC(=O)C(O)C(NC(=O)OC(C)(C)C)c4ccccc4)CC(O)(C(OC(=O)c4ccccc4)C21)C3(C)C (configuration not stated) + CC1OCC2(CCN(c3cnc(Sc4ccnc(N)c4Cl)c(N)n3)CC2)C1N | Y |
| O=C(c1cc(Cc2n[nH]c(=O)c3ccccc23)ccc1F)N1CCN(C(=O)C2CC2)CC1 + COc1cc2nc(C)nc(NC(C)c3cc(N)cc(C(F)(F)F)c3)c2cc1OC1CCOC1 | N |
| CC(=O)OC12COC1CC(O)C1(C)C(=O)C(O)C3=C(C)C(OC(=O)C(O)C(NC(=O)OC(C)(C)C)c4ccccc4)CC(O)(C(OC(=O)c4ccccc4)C21)C3(C)C (configuration not stated) + CNCc1ccccc1-c1csc(C(C)Nc2nc(C)nc3cc(OC)c(OC)cc23)c1 | Y |

Here's the next entry for you.
[in] Bench note: check whether CC1COCCN1c1cc(-c2ccnn2C)c2ccnc(-c3ccn[nH]3)c2n1 (configuration not stated) + CNCc1ccccc1-c1csc(C(C)Nc2nc(C)nc3cc(OC)c(OC)cc23)c1 shows viability, T/C below 7%
[out] Y

* * *

system: KRAS-mutant PDC complex spheroid viability; test: Anticancer human tumor 186277-243-T-J2-PDC cell line growth inhibition [KRAS2]; conditions: curve of first compound; second compound 0.1 µM
The following compounds are shown together with reported IC50 values.

Worked examples follow.
| compound | measuredParameter | experimentalResult |
| --- | --- | --- |
| CC(C)NCC(C(=O)N1CCN(c2ncnc3c2C(C)CC3O)CC1)c1ccc(Cl)cc1 (stereo not drawn) + C=CC(=O)N1CCN(c2nc(OCC3CCCN3C)nc3c2CCN(c2cccc4cccc(C)c24)C3)CC1CC#N | IC50 | 664 nM |
| CC(C)n1nc(-c2ccc3oc(N)nc3c2)c2c(N)ncnc21 + CC1OCC2(CCN(c3cnc(Sc4ccnc(N)c4Cl)c(N)n3)CC2)C1N | IC50 | 11.9 nM |

As a next step, examine the compound that follows.
[in] Fill in the blank: the reported IC50 of O=C(c1cc(Cc2n[nH]c(=O)c3ccccc23)ccc1F)N1CCN(C(=O)C2CC2)CC1 + CC1OCC2(CCN(c3cnc(Sc4ccnc(N)c4Cl)c(N)n3)CC2)C1N is ____.
[out] 6480 nM
